src = patent US20250121087A1

STUDY TARGET: T1, human B7-H3 (Y-Biologics Inc.) (human, UniProt Q5ZPR3 29-466)
T1 chain: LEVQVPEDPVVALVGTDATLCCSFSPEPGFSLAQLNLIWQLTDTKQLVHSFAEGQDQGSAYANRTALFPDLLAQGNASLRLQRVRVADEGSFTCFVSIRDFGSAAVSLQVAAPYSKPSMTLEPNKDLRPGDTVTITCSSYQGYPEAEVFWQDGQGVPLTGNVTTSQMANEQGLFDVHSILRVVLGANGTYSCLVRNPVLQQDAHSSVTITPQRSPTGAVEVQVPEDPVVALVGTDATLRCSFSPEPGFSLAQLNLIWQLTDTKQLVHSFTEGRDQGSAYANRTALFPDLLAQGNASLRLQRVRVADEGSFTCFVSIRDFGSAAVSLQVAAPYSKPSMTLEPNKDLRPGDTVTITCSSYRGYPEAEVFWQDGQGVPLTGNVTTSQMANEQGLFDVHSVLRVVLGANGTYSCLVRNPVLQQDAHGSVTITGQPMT
EXPERIMENTAL PROTOCOL: BLI (Octet QKe), antibody on AHC biosensor, human B7-H3 as analyte, 1:1 global fit
ENDPOINT NAME: kon (M⁻¹ s⁻¹)
Write the answer as a number in M⁻¹ s⁻¹, unit excluded.

Determine its reported kon: AB9 (SC0041, CD276-m8524), control anti-B7-H3 antibody (antibody, human IgG1, V domains shown, Control antibody produced by the applicants; Human IgG1, Kappa-T2S) VH: QVQLQQSGAEVKKPGSSVKVSCKASGGTFSSYAISWVRQAPGQGLEWMGGIIPILGIANYAQKFQGRVTITADESTSTAYMELSSLRSEDTAVYYCARGGSGSYHMDVWGKGTTVTVSS VL: EIVLTQSPATLSLSPGERATLSCRASQSVSSYLAWYQQKPGQAPRLLIYDASNRATGIPARFSGSGSGTDFTLTISSLEPEDFAVYYCQQRSNWPPRITFGQGTRLEIKR
500000

For the binder AB6 (SA2566, CD276-039C05_LS_002B07) (antibody, human IgG1, V domains shown, Whole human IgG; also called CD276-39C05-LS-002B07) VH: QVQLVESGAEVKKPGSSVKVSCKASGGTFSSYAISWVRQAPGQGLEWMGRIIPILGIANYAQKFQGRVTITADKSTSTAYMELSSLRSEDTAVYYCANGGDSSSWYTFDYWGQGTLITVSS VL: DIQMTQSPSSLSASVGDRVTITCRASQGISSYLAWYQQKPGKAPKLLIYAASTLQSGVPSRFSGSGSGTDFTLTISSLQPEDFATYYCQQYYSFPLTFGGGTKVEIK , give its measured kon value.
3e+06

Return the recorded kon value; entry: AB2 (SA2107, CD276-040F10) (antibody, human IgG1, V domains shown, Whole human IgG) VH: QVQLVESGAEVKKPGASVKLSCKASGYTFSSYWMHWVRQAPGQRLEWMGEINPGNGHTNYNEKFKSRVTITVDKSASTAYMELSSLRSEDTAVYYCVADPRRPKVPTALFVYWGQGTLVTVSS VL: DIQMTQSPSSVSASVGDRVTISCRASQGIGTWLAWYQQKPGKAPRLLIYAASSLDSGVPSRFSASGSGTDFTLTISSLQPEDFATYYCQQAINFPITFGQGTRLEIK
700000

Query kon for AB5 (SA2563, CD276-039C05_LS_002A11) (antibody, human IgG1, V domains shown, Whole human IgG; also called CD276-39C05_LS_002A11) VH: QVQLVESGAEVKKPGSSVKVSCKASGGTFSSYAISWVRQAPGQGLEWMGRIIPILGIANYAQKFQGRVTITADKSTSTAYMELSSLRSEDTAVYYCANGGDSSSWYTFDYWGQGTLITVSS VL: DIQMTQSPSTLSASVGDRLTITCRASQNINSWLAWYQQKPGKAPKLLIYKASYLQTGVPSRFSGSGSGTEFTLTITSLQPDDFASYYCQQYDSNPLTFGGGTKVEIK
1e+06
